Molecular target: EphB2 (Homo sapiens, UniProt P29323)
Sequence (P29323 19-1055): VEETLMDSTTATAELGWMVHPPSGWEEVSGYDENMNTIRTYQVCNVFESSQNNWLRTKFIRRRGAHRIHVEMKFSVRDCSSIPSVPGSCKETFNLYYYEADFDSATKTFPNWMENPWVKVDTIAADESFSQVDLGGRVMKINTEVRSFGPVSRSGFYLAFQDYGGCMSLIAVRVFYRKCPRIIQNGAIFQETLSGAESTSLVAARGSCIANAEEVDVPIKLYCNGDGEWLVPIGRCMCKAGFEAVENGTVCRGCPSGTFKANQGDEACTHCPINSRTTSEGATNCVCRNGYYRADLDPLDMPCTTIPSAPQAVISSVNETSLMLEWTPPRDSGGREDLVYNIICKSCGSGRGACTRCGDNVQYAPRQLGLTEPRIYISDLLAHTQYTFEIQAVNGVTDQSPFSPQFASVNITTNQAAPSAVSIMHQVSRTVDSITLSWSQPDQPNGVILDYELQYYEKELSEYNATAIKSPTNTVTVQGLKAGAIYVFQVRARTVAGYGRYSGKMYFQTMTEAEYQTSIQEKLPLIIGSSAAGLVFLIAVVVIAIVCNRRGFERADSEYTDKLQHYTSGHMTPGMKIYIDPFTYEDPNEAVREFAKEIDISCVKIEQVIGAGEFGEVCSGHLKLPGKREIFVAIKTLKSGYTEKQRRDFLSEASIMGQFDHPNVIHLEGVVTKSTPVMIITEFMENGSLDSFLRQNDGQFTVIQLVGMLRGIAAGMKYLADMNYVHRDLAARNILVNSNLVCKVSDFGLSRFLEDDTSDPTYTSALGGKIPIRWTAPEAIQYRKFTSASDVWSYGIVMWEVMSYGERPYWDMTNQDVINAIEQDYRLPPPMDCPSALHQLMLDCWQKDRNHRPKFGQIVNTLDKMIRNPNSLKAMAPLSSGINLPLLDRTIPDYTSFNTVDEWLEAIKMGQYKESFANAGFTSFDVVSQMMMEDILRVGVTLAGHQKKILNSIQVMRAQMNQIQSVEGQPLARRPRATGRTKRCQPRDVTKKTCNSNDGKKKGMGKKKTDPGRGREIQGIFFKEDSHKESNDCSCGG
pIC50: −log10 of the molar value.
measured parameter: pIC50

| molecule | measured parameter | reported |
| --- | --- | --- |
| O=C(Nc1c[nH]nc1-c1nc2cc(CN3CCOCC3)ccc2[nH]1)NC1CC1 [compound of formula (I)] | pIC50 | > 7.00 |

Source of measurements: patent US20110159111A1
